- system: Androgen receptor (Rattus norvegicus) (UniProt P15207)
- Sequence (whole entry): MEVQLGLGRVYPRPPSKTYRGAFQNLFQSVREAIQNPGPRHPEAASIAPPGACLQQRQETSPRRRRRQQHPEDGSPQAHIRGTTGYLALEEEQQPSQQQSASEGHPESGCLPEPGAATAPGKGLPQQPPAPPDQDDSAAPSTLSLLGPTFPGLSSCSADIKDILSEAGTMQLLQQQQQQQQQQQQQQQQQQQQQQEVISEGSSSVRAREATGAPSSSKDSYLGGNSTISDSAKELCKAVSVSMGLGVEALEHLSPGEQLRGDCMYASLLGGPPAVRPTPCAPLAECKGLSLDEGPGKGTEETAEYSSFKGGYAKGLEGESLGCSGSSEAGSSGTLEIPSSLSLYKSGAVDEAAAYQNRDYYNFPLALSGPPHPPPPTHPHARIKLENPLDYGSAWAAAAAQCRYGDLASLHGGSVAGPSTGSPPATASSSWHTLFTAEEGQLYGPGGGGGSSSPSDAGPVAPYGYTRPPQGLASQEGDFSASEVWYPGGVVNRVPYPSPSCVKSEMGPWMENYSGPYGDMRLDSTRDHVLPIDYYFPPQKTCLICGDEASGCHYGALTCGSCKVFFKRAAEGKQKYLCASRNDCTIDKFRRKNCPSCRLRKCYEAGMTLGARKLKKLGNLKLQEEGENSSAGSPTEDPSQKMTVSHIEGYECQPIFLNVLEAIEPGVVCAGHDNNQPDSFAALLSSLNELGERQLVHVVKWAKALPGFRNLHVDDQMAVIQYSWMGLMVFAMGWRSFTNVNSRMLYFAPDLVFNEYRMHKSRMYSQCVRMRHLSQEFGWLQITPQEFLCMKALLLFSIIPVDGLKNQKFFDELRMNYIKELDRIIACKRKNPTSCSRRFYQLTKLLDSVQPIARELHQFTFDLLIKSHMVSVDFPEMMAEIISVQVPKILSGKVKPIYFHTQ
Below: a set of entries, each annotated with reported BSI.
Just the number, please.

query: Need BSI of `C[C@]12CCC(=O)C[C@@H]1CC[C@@H]1[C@@H]2[C@@H](F)C[C@]2(C)[C@@H](O)CC[C@@H]12` , thanks.
result: 42.8

query: And `C[C@]12CC[C@H]3[C@@H](CC[C@H]4CC(=O)CC[C@@H]43)[C@@H]1CC[C@@H]2O` ?
result: 13.7

query: What about this compound? `C[C@]12C[C@H](F)[C@H]3[C@@H](CC[C@H]4CC(=O)CC[C@@H]43)[C@@H]1CC[C@@H]2O`
result: 91.8

query: Now try `C[C@]1(O)CC[C@H]2[C@@H]3CCC4=CC(=O)CCC4=C3C=C[C@@]21C` .
result: 100

* * *

- test_description: physchem
- condition_parameters: octanol/water
- Description: Partition coefficient (logP)
parameter_measured: logP
Simply state the number, no unit and no words.

Study these solved cases before continuing.
query: Look up logP for this molecule: `C[C@]12CC[C@H]3[C@@H](CCC4=CC(=O)CC[C@@]43C)[C@@H]1CC[C@@H]2O`
result: 3.45

query: Record: `C[C@]12CC[C@H]3[C@@H](CC[C@H]4CC(=O)CC[C@@H]43)[C@@H]1CC[C@@H]2O`
result: 3.85

query: Also, `C[C@]12C[C@H](F)[C@H]3[C@@H](CC[C@H]4CC(=O)CC[C@@H]43)[C@@H]1CC[C@@H]2O` please.
result: 3.1

query: Field entry: `C[C@]12CC[C@H]3[C@@H](CCC4=CC(=O)CC[C@@H]43)[C@@H]1CC[C@@H]2O`
result: 3.17

query: Please answer likewise for `C[C@]12CCC(=O)C[C@@H]1CC[C@@H]1[C@@H]2[C@@H](F)C[C@]2(C)[C@@H](O)CC[C@@H]12`
result: 3.5

Next:
query: Dear colleague, I am looking for the recorded logP of the following molecule: `C[C@]1(O)CC[C@H]2[C@@H]3CCC4=CC(=O)CCC4=C3C=C[C@@]21C`
result: 3.29
